# assay-system: Bovine liver catalase (BLC) (Bos taurus, UniProt P00432)
# Sequence (P00432 2-527): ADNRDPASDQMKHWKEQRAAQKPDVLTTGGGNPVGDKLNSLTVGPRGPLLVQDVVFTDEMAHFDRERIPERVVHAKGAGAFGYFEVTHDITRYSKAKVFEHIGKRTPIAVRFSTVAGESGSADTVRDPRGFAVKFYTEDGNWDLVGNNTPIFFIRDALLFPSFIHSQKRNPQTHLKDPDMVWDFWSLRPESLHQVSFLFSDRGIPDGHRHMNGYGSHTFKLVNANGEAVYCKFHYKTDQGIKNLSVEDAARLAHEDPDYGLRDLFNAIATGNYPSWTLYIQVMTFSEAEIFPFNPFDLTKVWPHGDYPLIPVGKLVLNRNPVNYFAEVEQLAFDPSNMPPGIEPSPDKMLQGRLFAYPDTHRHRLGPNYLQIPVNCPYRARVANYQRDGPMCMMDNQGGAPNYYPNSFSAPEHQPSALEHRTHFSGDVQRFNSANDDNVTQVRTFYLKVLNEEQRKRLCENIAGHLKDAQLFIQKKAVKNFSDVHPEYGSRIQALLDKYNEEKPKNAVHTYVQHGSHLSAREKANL
quantity-name: pIC50
Just the number, please; pIC50 means minus log10 of the concentration in mol/L.

Kindly note the recorded pIC50 for Oc1ccc(/C=C/c2cc(O)cc(O)c2)cc1 [tRES, trans resveratrol] , which is 5.09
